Biological target: T1, hGITR.mFc (human)
T1 construct: soluble dimeric construct with mouse Fc; also called dimeric human GITR
T1 chain: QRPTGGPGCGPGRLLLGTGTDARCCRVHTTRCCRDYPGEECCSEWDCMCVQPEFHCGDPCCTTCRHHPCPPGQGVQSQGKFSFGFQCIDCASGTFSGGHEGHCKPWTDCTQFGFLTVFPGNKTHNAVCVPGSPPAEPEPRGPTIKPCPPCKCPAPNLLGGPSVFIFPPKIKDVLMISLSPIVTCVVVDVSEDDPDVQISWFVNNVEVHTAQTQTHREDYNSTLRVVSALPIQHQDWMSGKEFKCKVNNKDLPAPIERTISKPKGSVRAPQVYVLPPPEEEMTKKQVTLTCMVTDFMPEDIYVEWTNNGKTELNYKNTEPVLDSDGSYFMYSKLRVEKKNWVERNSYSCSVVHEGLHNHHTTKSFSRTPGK
Assay: SPR 37C, mAb capture
Measured Kd by item
Number in nM, nothing else.

Check out these entries, answers already filled in.
H4H14525P (antibody, human IgG4, V domains shown, human IgG4 (H4H)) VH: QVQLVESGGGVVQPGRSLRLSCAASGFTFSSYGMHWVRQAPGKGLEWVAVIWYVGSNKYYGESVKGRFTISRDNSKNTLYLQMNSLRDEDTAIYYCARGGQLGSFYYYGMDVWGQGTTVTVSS VL: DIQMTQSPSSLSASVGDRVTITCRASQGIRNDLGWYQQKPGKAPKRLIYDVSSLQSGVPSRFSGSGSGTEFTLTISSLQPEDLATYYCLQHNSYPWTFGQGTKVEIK ... 0.427
H1H14523P (antibody, human IgG1, V domains shown, human IgG1 (H1H)) VH: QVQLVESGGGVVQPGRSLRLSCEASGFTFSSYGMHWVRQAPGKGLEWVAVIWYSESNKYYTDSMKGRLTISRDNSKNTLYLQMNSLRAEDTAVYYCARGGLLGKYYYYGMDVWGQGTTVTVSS VL: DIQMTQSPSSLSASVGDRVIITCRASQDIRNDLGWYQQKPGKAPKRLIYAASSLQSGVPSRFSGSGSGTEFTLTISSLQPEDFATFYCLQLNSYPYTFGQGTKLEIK ... 0.216

Let us examine a further case.
Please indicate Kd recorded for H1H14491P (antibody, human IgG1, V domains shown, human IgG1 (H1H)) VH: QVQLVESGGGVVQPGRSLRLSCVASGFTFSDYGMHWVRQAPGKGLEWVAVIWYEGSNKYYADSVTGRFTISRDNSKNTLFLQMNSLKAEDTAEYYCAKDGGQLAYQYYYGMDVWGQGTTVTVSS VL: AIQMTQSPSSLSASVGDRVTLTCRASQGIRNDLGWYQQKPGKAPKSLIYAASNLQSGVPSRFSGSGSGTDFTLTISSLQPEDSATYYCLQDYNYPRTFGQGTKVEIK
0.201
